Biological target: T1, rhesus CD45 ectodomain (Macaca mulatta, UniProt A0A1D5R142)
T1 construct: purified human, rhesus or cynomolgus CD45 ectodomain
T1 sequence (A0A1D5R142 26-581): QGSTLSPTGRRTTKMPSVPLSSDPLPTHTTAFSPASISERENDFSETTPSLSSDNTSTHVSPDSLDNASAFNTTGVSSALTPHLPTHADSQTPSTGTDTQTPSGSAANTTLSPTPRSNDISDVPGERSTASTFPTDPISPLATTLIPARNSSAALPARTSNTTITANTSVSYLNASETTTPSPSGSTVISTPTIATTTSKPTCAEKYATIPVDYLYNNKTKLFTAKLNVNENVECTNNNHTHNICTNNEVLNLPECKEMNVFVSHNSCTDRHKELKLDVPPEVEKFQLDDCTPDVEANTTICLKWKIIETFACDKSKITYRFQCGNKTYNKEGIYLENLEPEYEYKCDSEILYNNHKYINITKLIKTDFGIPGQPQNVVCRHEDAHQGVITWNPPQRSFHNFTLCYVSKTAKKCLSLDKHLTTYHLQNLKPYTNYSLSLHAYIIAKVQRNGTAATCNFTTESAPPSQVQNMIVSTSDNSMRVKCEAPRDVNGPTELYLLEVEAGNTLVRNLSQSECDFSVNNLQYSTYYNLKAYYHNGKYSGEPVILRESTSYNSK
Assay: Biolayer interferometry (BLI, Octet) binding of immobilized IgG to purified CD45 ectodomain
Conditions: Table 2, Rhesus CD45
RECORDED METRIC: Kon (M⁻¹ s⁻¹)

molecule="Ab5: variant of Ab4 with asparagine to serine substitution in CDR-L1; VH SEQ ID NO:41, VL SEQ ID NO:45 (antibody, V domains shown) VH: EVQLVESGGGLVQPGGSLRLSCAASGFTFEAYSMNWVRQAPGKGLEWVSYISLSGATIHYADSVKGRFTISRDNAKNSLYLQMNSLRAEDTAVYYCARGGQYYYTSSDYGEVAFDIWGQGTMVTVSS VL: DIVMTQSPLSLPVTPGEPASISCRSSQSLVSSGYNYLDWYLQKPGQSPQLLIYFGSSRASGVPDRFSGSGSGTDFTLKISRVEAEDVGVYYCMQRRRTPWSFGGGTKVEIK" recorded_metric=Kon reading=113000
